# tested.system: recombinant human CYP2C9 (Homo sapiens)
# Construct: purchased Promega (P450-Glo Screening system); host or cells: baculovirus expression system
# Sequence (P11712 whole entry): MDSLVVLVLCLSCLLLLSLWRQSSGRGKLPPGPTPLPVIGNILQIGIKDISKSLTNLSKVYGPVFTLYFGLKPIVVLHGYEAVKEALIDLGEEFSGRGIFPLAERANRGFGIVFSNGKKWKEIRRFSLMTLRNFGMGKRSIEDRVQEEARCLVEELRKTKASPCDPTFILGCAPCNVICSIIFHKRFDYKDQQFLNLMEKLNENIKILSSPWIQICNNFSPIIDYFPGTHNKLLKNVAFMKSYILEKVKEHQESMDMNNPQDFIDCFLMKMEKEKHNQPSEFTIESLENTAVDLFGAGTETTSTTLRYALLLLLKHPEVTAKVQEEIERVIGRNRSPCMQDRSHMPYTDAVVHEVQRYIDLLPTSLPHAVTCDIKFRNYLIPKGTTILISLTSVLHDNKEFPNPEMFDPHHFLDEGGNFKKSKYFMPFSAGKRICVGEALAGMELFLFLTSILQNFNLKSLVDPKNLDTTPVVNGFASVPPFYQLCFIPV
# assay.name: Luminogenic P450-Glo enzyme inhibition assay, CYP2C9
# Format: in vitro ADME
# condition.set: classified by IC50 value; read-out: inhibitory potency class on CYP2C9
measured.parameter: IC50

compound | recorded.value
O=C1c2ccc(O)cc2OC(c2ccc(O)c(O)c2)C1O (centres unmarked) | > 347 µM

With those in mind, consider the next compound.
INPUT: # return IC50 of O=c1c(O)c(-c2ccc(O)c(O)c2)oc2cc(O)ccc12 (system: recombinant human CYP2C9 (Homo sapiens))
OUTPUT: < 69.9 µM

###

# tested.system: CYP2D6 (Homo sapiens)
# Construct: purchased Promega (P450-Glo Screening system); host or cells: baculovirus expression system
# Sequence (P10635 whole entry): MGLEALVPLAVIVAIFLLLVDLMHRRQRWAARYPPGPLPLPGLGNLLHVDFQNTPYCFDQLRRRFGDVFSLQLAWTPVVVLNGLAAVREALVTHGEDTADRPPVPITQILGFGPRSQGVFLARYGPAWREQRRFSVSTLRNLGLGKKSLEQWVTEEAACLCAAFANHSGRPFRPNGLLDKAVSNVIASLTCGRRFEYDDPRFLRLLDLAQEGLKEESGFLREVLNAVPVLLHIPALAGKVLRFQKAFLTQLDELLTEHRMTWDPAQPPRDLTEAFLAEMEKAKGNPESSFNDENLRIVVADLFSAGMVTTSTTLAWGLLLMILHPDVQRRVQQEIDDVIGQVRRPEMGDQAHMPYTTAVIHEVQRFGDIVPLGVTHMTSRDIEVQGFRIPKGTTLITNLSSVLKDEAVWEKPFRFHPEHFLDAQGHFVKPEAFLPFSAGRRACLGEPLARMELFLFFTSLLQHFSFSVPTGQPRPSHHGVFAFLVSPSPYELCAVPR
# assay.name: Luminogenic P450-Glo enzyme inhibition assay, CYP2D6
# Format: in vitro ADME
# condition.set: human, classified by IC50 value; read-out: inhibitory potency class on CYP2D6
measured.parameter: IC50 at 45 min

INPUT: Give the value of IC50 at 45 min reported for the following: O=c1c(O)c(-c2ccc(O)c(O)c2)oc2cc(O)ccc12
OUTPUT: > 100 µg/mL

###

# tested.system: CYP2D6 (Homo sapiens)
# Construct: purchased Promega (P450-Glo Screening system); host or cells: baculovirus expression system
# assay.name: Luminogenic P450-Glo enzyme inhibition assay, CYP2D6
# Format: in vitro ADME
# condition.set: classified by IC50 value; read-out: inhibitory potency class on CYP2D6
measured.parameter: IC50

compound | tested.system | IC50
O=C1c2ccc(O)cc2OC(c2ccc(O)c(O)c2)C1O (centres unmarked) [Fustin] | CYP2D6 (Homo sapiens) | > 347 µM

With those in mind, consider the next compound.
INPUT: # return IC50 of O=c1c(O)c(-c2ccc(O)c(O)c2)oc2cc(O)ccc12 [Fisetin] (system: CYP2D6 (Homo sapiens))
OUTPUT: 69.9 to 349 µM

###

# tested.system: recombinant human CYP2C19 (Homo sapiens)
# Construct: purchased Promega (P450-Glo Screening system); host or cells: baculovirus expression system
# Sequence (P33261 whole entry): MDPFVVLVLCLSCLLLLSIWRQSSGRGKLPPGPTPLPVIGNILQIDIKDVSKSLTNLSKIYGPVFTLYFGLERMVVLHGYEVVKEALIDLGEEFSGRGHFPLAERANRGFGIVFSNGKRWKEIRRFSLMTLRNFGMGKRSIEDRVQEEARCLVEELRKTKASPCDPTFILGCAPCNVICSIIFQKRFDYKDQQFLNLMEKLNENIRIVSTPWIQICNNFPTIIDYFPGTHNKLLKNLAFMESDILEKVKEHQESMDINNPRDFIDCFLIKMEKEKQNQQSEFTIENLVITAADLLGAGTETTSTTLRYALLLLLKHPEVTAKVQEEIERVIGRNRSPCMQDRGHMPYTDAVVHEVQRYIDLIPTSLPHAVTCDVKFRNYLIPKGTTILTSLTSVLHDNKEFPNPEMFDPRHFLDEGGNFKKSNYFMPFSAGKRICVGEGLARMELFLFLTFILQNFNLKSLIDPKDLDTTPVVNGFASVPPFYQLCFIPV
# assay.name: Luminogenic P450-Glo enzyme inhibition assay, CYP2C19
# Assay type: in vitro ADME
# condition.set: classified by IC50 value; read-out: inhibitory potency class on CYP2C19
measured.parameter: IC50

compound | IC50
O=c1c(O)c(-c2ccc(O)c(O)c2)oc2cc(O)ccc12 | < 69.9 µM

With those in mind, consider the next compound.
INPUT: # return IC50 of O=C1c2ccc(O)cc2OC(c2ccc(O)c(O)c2)C1O (centres unmarked) (system: recombinant human CYP2C19 (Homo sapiens))
OUTPUT: 69.4 to 347 µM
